In this section we review reported OD450 values for a set of binders.
target: T1, human MSLN-hFc protein (Acro, Cat. No. MSN-H5253) (human, UniProt Q13421 296-580)
T1 construct: the method names the coated protein as human MSLN-hFc (Acro); also called human MSLN full-length protein
T1 sequence (Q13421 other isoform, or with tags, fused parts or gaps limits assumed): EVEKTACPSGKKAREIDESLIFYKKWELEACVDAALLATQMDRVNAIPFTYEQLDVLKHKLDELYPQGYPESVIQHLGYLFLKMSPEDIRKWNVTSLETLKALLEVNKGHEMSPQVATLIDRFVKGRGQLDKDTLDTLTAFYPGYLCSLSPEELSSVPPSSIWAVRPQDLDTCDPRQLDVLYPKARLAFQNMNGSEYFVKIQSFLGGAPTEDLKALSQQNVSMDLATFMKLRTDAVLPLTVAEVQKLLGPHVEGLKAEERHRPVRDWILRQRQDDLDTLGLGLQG
test-method-notes: ELISA on coated antigen, antibody 0.0001 nM
Return type: number; implicit unit OD450.

See these solved cases before continuing.
binder	attribute-measured	recorded-result
F7.44.20-H8 (scFv, not shown: small tags and cut ends, also called S009-F7.44.20 humanized antibody VH1a + VL4) scFv: EVQLVQSGAEVKKPGASVKVSCKASGYTFTDYNMDWVRQAPGQGLEWMGDINPSTGGTIYNQKFQGRVTMTEDKSTSTVYMELSSLRSEDTAVYYCARRRIGTGYFDVWGQGTTVTVSSGGGGSGGGGSGGGGSEIVLTQSPATLSLSPGERATLSCSASSSVISSYLSWYQQKPGSSPRLLIYRTSNLASGIPARFSGSGSGTDYTLTISSLEPEDFAVYYCHQWSSFPYTFGGGTKVEIK	OD450	0.05
F7.44.20-H10 (scFv, not shown: small tags and cut ends, also called S009-F7.44.20 humanized antibody VH2 + VL2) scFv: EVQLVQSGAEVKKPGASVKVSCKASGYTFTDYNMDWVRQAPGQGLEWMGDINPSTGGTIYNQKFNGRVTMTEDKSASTVYMELSSLRSEDTAVYYCARRRIGTGYFDVWGQGTTVTVSSGGGGSGGGGSGGGGSEIVLTQSPDFQSVTPKEKVTITCSASSSVISSYLSWYQQKPDQSPKLLIYRTSNLASGVPSRFSGSGSGTDYTLTINSLEAEDAATYYCHQWSSFPYTFGGGTKVEIK	OD450	0.05

Kindly consider the entry below.
[ask] Consider the binder F7.44.20-H15 (scFv, not shown: small tags and cut ends, also called S009-F7.44.20 humanized antibody VH2a + VL3) scFv: EVQLVQSGAEVKKPGASVKVSCKASGYTFTDYNMDWVRQAPGQGLEWMGDINPSTGGTIYNQKFSGRVTMTEDKSASTVYMELSSLRSEDTAVYYCARRRIGTGYFDVWGQGTTVTVSSGGGGSGGGGSGGGGSEIVLTQSPATLSLSPGERATLSCSASSSVISSYLSWYQQKPGQSPRLLIYRTSNLASGIPARFSGSGSGTDYTLTISSLEPEDFAVYYCHQWSSFPYTFGGGTKVEIK and give its measured OD450.
[reply] 0.05
